- System: LOC_OS03G12390-cb001;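 further: purified Escherichia coli-expressed rice kinase domain construct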
- ASSAY_REMARKS: thermal shift delta Tm vs DMSO control; higher = stronger stabilization (binding)
- PROTOCOL_CONDITIONS: 12.5 µM; protein concentration 2 µM
Is thermal shift delta Tm at least 0.4 °C? Then Met. If not, Not met.

Observe how each entry below is paired with its result.
* O=C(c1cccc(Cl)c1F)N1CCN(Cc2cccc(Nc3nccs3)n2)CC1 | Not met
* C#Cc1cccc(Nc2ncnc3cc(OCCOC)c(OCCOC)cc23)c1 | Met
* CCOC(=O)c1cnc2ccc(-c3cncc(NS(=O)(=O)c4ccccc4)c3)cn12 | Met

**Query** Dear colleague, could you confirm whether `COc1cccc(-c2cc(=O)c3ccccc3o2)c1N` has thermal shift delta Tm at or above 0.4 °C?
**Result** Not met

**Query** Dear colleague, could you confirm whether `CC(C)n1ncnc1-c1cn2c(n1)-c1ccc(O[C@@H](C)C(N)=O)cc1OCC2` has thermal shift delta Tm at or above 0.4 °C?
**Result** Not met

**Query** Dear colleague, could you confirm whether `CO[C@H]1C[C@@H]2CC[C@@H](C)[C@@](O)(O2)C(=O)C(=O)N2CCCC[C@H]2C(=O)O[C@H]([C@H](C)C[C@@H]2CC[C@@H](OC(=O)C(C)(CO)CO)[C@H](OC)C2)CC(=O)[C@H](C)/C=C(\C)[C@@H](O)[C@@H](OC)C(=O)[C@H](C)C[C@H](C)/C=C/C=C/C=C/1C` has thermal shift delta Tm at or above 0.4 °C?
**Result** Not met

**Query** Dear colleague, could you confirm whether `Cc1ccccc1CN1C2=NCCN2C(=O)C2=C1CCN(Cc1ccccc1)C2` has thermal shift delta Tm at or above 0.4 °C?
**Result** Not met

**Query** Dear colleague, could you confirm whether `CCOc1cc(N2CCC(O)CC2)ccc1Nc1ncc2c(n1)N(C)c1ccccc1C(=O)N2C` has thermal shift delta Tm at or above 0.4 °C?
**Result** Met

**Query** Dear colleague, could you confirm whether `N#Cc1ccc(-c2c(-c3ncn[nH]3)sc(N3CCOCC3)c2C#N)c(F)c1` has thermal shift delta Tm at or above 0.4 °C?
**Result** Not met

**Query** Dear colleague, could you confirm whether `COc1ccc(COc2ccc(Cc3cnc(N)nc3N)cc2OC)cc1` has thermal shift delta Tm at or above 0.4 °C?
**Result** Not met

**Query** Dear colleague, could you confirm whether `Nc1nc(Nc2ccc(S(N)(=O)=O)cc2)nn1C(=O)c1c(F)cccc1F` has thermal shift delta Tm at or above 0.4 °C?
**Result** Met

**Query** Dear colleague, could you confirm whether `CC(=O)O/N=C1/C(c2c(O)[nH]c3cc(Br)ccc23)=Nc2ccccc21` has thermal shift delta Tm at or above 0.4 °C?
**Result** Not met

**Query** Dear colleague, could you confirm whether `COc1cc(OC)c(/C=C/S(=O)(=O)Cc2ccc(OC)c(NCC(=O)O)c2)c(OC)c1` has thermal shift delta Tm at or above 0.4 °C?
**Result** Not met

**Query** Dear colleague, could you confirm whether `CN1CC[C@H](c2c(O)cc(O)c3c(=O)cc(-c4ccccc4Cl)oc23)[C@H](O)C1` has thermal shift delta Tm at or above 0.4 °C?
**Result** Met

**Query** Dear colleague, could you confirm whether `NC(=O)c1ccc2nc(-c3ccc(Oc4ccc(Cl)cc4)cc3)[nH]c2c1` has thermal shift delta Tm at or above 0.4 °C?
**Result** Met

**Query** Dear colleague, could you confirm whether `C[C@@H](Oc1cc(-n2cnc3ccc(CN4CCN(C)CC4)cc32)sc1C(N)=O)c1ccccc1C(F)(F)F` has thermal shift delta Tm at or above 0.4 °C?
**Result** Not met

**Query** Dear colleague, could you confirm whether `COC(=O)N[C@@H](C)CNc1nccc(-c2cn(C(C)C)nc2-c2cc(Cl)cc(NS(C)(=O)=O)c2F)n1` has thermal shift delta Tm at or above 0.4 °C?
**Result** Not met

**Query** Dear colleague, could you confirm whether `CO[C@@H](C)Cn1c(=O)n(C)c2cnc3ccc(-c4cncc(C(C)(C)O)c4)cc3c21` has thermal shift delta Tm at or above 0.4 °C?
**Result** Not met

**Query** Dear colleague, could you confirm whether O=C1c2ccc(Nc3ccc(F)cc3F)cc2CCc2ccc(OC[C@H](O)CO)cc21 [Skepinone-L] has thermal shift delta Tm at or above 0.4 °C?
**Result** Not met
